The values you see were collected from paper PMC5540273.

tested on: PRKX; settings: concentration: 1 μM, replicates: in singlicate; n = 1;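 also: KINOMEscan kinase panel screen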
Catalogue of %Inh values
Give the value, in units of %, as a plain number.

Please review the following examples before continuing.
- Compound: "CN1CCN(CCCNc2nccc(-c3c(-c4ccc(F)cc4)nn4cc(C(F)(F)F)ccc34)n2)CC1 [GW621581]"
  %Inh [%]: 13
- Compound: "COc1ccc(CNC(=O)NC2CCN(c3ccnc(Nc4ccc(F)cc4)n3)CC2)cc1 [GSK1379788]"
  %Inh [%]: 5
- Compound: "CSc1cccc2c(-c3ccncn3)c(-c3ccc(F)cc3)nn12 [GW514786]"
  %Inh [%]: 16
- Compound: "COc1cc(Nc2nccc(-c3c(-c4cccc(NC(=O)c5c(F)cccc5F)c4)nn4ncccc34)n2)cc(OC)c1OC [GSK327238]"
  %Inh [%]: 0
- Compound: "CNC(=O)c1ccccc1Nc1nc(Nc2ccc(N3CCOCC3)cc2)ncc1Cl.Cl [GSK1576028]"
  %Inh [%]: 17

[in] Find the measured %Inh of CCS(=O)(=O)c1ccc(OC)c(Nc2nccc(-c3c(-c4cccc(NC(=O)c5c(F)cccc5F)c4)nn4ncccc34)n2)c1 [GSK326180] and report it.
[out] 18

[in] Find the measured %Inh of c1ccc(Oc2ccc(Nc3ccnc4cc(-c5ccc(CNCCN6CCOCC6)o5)ccc34)cc2)nc1 [GW567145] and report it.
[out] 0

[in] Find the measured %Inh of Nc1ncnc2c1nc(-c1ccccc1)n2-c1ccccc1 [SKF-97293] and report it.
[out] 3

[in] Find the measured %Inh of Cn1cc(-c2[nH]c3cc(NC(=O)[C@H](N)C4CCCCC4)cc4c3c2C=NNC4=O)cn1 and report it.
[out] 89

[in] Find the measured %Inh of NCCCC(NC(=O)c1cc(Br)c(-c2ccnc3[nH]ccc23)s1)c1ccccc1.O=C(O)C(F)(F)F.O=C(O)C(F)(F)F (centres unmarked) [GSK1287544] and report it.
[out] 92.5

[in] Find the measured %Inh of O=C(Nc1n[nH]c2nc(-c3ccc(O)cc3)ccc12)C1CC1 [SB-710363] and report it.
[out] 0

[in] Find the measured %Inh of CN(C)Cc1ccc(-c2ccc3c(Nc4ccc(Oc5ccccn5)cc4)ccnc3c2)o1 [GW567148] and report it.
[out] 22

[in] Find the measured %Inh of CN(c1ccc(NC(=O)Nc2cc(C(F)(F)F)ccc2F)cc1)c1ccnc(Nc2ccc(S(N)(=O)=O)cc2)n1 [GW809893] and report it.
[out] 0

[in] Find the measured %Inh of Cc1cccc(NC(=O)Nc2ccc(Oc3ncnc4ccn(C)c34)cc2)c1 and report it.
[out] 0

[in] Find the measured %Inh of Cc1occc1-c1ncc(OC[C@@H](N)Cc2c[nH]c3ccccc23)cc1-c1ccc2[nH]nc(C)c2c1.O=C(O)C(F)(F)F [GSK682037] and report it.
[out] 56

[in] Find the measured %Inh of CCCCc1nn2ncccc2c1-c1ccnc(Nc2ccc(N3CCN(C)CC3)cc2)n1 [GW684941] and report it.
[out] 31

[in] Find the measured %Inh of COCCOCCOc1cc2ncc3c4ccc(C#N)cc4[nH]c3c2cc1OC and report it.
[out] 0
